Answer each item with its documented DC50.
Measured target: BCL-XL (Homo sapiens)
Construct: endogenous in cells; host or cells: MOLT-4
Sequence (Q07817 whole entry): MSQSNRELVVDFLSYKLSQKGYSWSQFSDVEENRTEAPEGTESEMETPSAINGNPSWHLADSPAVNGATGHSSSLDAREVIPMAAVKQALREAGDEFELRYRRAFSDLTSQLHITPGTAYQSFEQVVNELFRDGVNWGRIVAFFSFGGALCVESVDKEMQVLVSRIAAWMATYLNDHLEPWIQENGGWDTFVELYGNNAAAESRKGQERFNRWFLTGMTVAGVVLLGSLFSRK
Assay procedure: Bcl-xL ELISA degradation in MOLT-4 cells, 6 h
Assay type: cell-based
Recorded conditions: read-out: Bcl-xL ELISA in MOLT-4 degradation 6 h: Mean external-Abs DC50

Batch lookup, DC50 per entry.
1. Cc1ncsc1-c1ccc([C@H](C)NC(=O)[C@@H]2C[C@@H](O)CN2C(=O)[C@@H](NC(=O)C2CCN(c3ccc(S(=O)(=O)NC(=O)c4nc(N5CCc6cccc(C(=O)Nc7nc8ccccc8s7)c6C5)ccc4-c4cnn(CC5CCCCC5)c4C)cc3CO)CC2)C(C)(C)C)cc1
2. Cc1ncsc1-c1ccc([C@H](C)NC(=O)[C@@H]2C[C@@H](O)CN2C(=O)[C@@H](NC(=O)CO[C@H]2C[C@H](OCCNC(=O)c3nc(N4CCc5cccc(C(=O)Nc6nc7ccccc7s6)c5C4)ccc3-c3cnn(CC4CCCCC4)c3C)C2)C(C)(C)C)cc1
3. Cc1ncsc1-c1ccc([C@H](C)NC(=O)[C@@H]2C[C@@H](O)CN2C(=O)[C@@H](NC(=O)C2CCN(c3ccc(S(=O)(=O)NC(=O)c4nc(N5CCc6cccc(C(=O)Nc7nc8cccnc8s7)c6C5)ccc4-c4cnn(CC5CCCCC5)c4C)cc3)CC2)C(C)(C)C)cc1
4. C#Cc1ccc(CNC(=O)[C@@H]2C[C@@H](O)CN2C(=O)[C@@H](NC(=O)CCCCCS(=O)(=O)NC(=O)c2nc(N3CCc4cccc(C(=O)Nc5nc6cccnc6s5)c4C3)ccc2-c2cnn(CC3CCCCC3)c2C)C(C)(C)C)cc1

1. 100 to 500 nM
2. 100 to 500 nM
3. 10 to 100 nM
4. < 10 nM
